assay-system: farnesyl protein transferase (Homo sapiens, UniProt P49354+P49356)
experiment-summary: FPT IC50, inhibition of farnesyl protein transferase, in vitro enzyme assay
Assay type: biochemical
conditions-used: K-ras; range stated jointly for the listed compounds; read-out: FPT IC50 (K-ras)
pIC50: −log10 of the molar value.

compound-string	assay-system	pIC50
O=C(CC1CCN(c2ccccn2)CC1)N1CCC([C@H]2c3ncc(Br)cc3CCc3cc(Cl)cc(Br)c32)CC1	farnesyl protein transferase (Homo sapiens, UniProt P49354+P49356)	7.04 to 7.54
CC(=O)OC[C@H]1O[C@@H](N2CCC(CC(=O)N3CCC([C@H]4c5ncc(Br)cc5CCc5cc(Cl)cc(Br)c54)CC3)CC2)[C@H](OC(C)=O)[C@@H](OC(C)=O)[C@@H]1OC(C)=O	farnesyl protein transferase (Homo sapiens, UniProt P49354+P49356)	7.04 to 7.54
O=C(CC1CCN(c2nc3ccccc3o2)CC1)N1CCC([C@H]2c3ncc(Br)cc3CCc3cc(Cl)cc(Br)c32)CC1	farnesyl protein transferase (Homo sapiens, UniProt P49354+P49356)	7.04 to 7.54

----------
assay-system: farnesyl protein transferase (Homo sapiens, UniProt P49354+P49356)
experiment-summary: FPT IC50, inhibition of farnesyl protein transferase, in vitro enzyme assay
Type: biochemical
conditions-used: H-ras; range stated jointly for the listed compounds; read-out: FPT IC50 (H-ras)
pIC50: −log10 of the molar value.
observed-property: pIC50

compound	assay-system	observed-property	measured
O=C(CC1CCN(c2nccs2)CC1)N1CCC([C@H]2c3ncc(Br)cc3CCc3cc(Cl)cc(Br)c32)CC1 [Compound 3.0]	farnesyl protein transferase (Homo sapiens, UniProt P49354+P49356)	pIC50	6.85 to 8.34
CC(=O)OC[C@H]1O[C@@H](N2CCC(CC(=O)N3CCC([C@H]4c5ncc(Br)cc5CCc5cc(Cl)cc(Br)c54)CC3)CC2)[C@H](OC(C)=O)[C@@H](OC(C)=O)[C@@H]1OC(C)=O [Compound 9.3]	farnesyl protein transferase (Homo sapiens, UniProt P49354+P49356)	pIC50	6.85 to 8.34
O=C(CC1CCN(c2nc3ccccc3o2)CC1)N1CCC([C@H]2c3ncc(Br)cc3CCc3cc(Cl)cc(Br)c32)CC1 [Compound 4.0]	farnesyl protein transferase (Homo sapiens, UniProt P49354+P49356)	pIC50	6.85 to 8.34
O=C(CC1CCN(c2ccccn2)CC1)N1CCC([C@H]2c3ncc(Br)cc3CCc3cc(Cl)cc(Br)c32)CC1 [Compound 5.0]	farnesyl protein transferase (Homo sapiens, UniProt P49354+P49356)	pIC50	6.85 to 8.34
O=C(CC1CCN(c2nnnn2-c2ccccc2)CC1)N1CCC([C@H]2c3ncc(Br)cc3CCc3cc(Cl)cc(Br)c32)CC1 [Compound 2.0]	farnesyl protein transferase (Homo sapiens, UniProt P49354+P49356)	pIC50	6.85 to 8.34
O=C(CC1CCN(c2ncccn2)CC1)N1CCC([C@H]2c3ncc(Br)cc3CCc3cc(Cl)cc(Br)c32)CC1 [Compound 6.0]	farnesyl protein transferase (Homo sapiens, UniProt P49354+P49356)	pIC50	6.85 to 8.34
